test: chemical genetic growth profiling, strain panel (AID 1159580);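 note: tested at 20 µM; growth read once vehicle control cultures reached saturation at 30 °C; 1 = growth at the plate median or of vehicle wells; lower values mean less growth of the strain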; conditions: S. cerevisiae deletion strains, growth OD, locus YOR136W, strain idh2
Screen size: about 5,500 compounds; about 2,000 (36%) were called active. Another 18% or so got no clear call; they are omitted. Cut-off read from the data, not from the text of the source: active = normalized growth mostly below about 0.91 (no sharp cut-off); inconclusive = no clear call, values can overlap the other calls; inactive = mostly above about 0.92. The list shows a part of the results.
Just give me one of these, please: T = active, F = inactive

Consider the worked cases shown below.
compound=Cc1onc(-c2c(Cl)cccc2Cl)c1C(=O)N[C@@H]1C(=O)N2[C@@H]1SC(C)(C)[C@@H]2C(=O)O category=F
compound="CC(=O)CC1CCCCN1 (stereo unspecified)" category=F
compound="C1CCC(C(CC2CCCCN2)C2CCCCC2)CC1 (stereo unspecified)" category=T
compound="CNC(Cc1c[nH]c2ccccc12)C(=O)O (stereo unspecified)" category=F
compound=COc1cnc(NS(=O)(=O)c2ccc(N)cc2)nc1 category=F

Answer briefly: the call reported for "COc1cc(O)cc(OC)c1OC" in this assay.
F

Record request — test call for CCc1cccc2c3c([nH]c12)C(CC)(CC(=O)O)OCC3 (stereo unspecified)
F

Given CC(=O)[C@@]1(O)CCC2C3CCC4=CC(=O)CC[C@]4(C)C3CC[C@@]21C (stereo partly specified) , state the outcome it received in this test.
F

Which outcome was assigned to COc1c2c(cc3c1OCO3)C13C=C[C@H](OC)CC1N(C2)CC3O (stereo partly specified) in this test?
F

Outcome? C=C(C)[C@@H]1CC[C@]2(CO)CC[C@]3(C)[C@H](CCC4[C@@]5(C)CC[C@H](O)C(C)(C)C5CC[C@]43C)C12 (stereo partly specified)
F

What classification did "COc1ccc2c(c1)[C@]13CCCC[C@H]1[C@H](C2)N(C)CC3" end up with in this test?
F

How did this test come out for "COc1c2ccoc2cc2oc(C)cc(=O)c12" ?
F

Identify the outcome logged in this assay for the compound shown: "CN1CCN(CCCN2c3ccccc3Sc3ccc(C(F)(F)F)cc32)CC1"
T

So what was the verdict on "CC(=O)Oc1cccc(C(=O)O)c1OC(C)=O" in this test?
F

Hey, what did the test say about "CC(=O)N[C@@H](Cc1c[nH]c2ccccc12)C(=O)O" ?
F

What did this assay record as the result for COc1cc2c(cc1OC)-c1c(oc3c4c(ccc3c1=O)OC(C(C)C)C4)CO2 (stereo unspecified) ?
F

Fill in: this test's call for COc1cc2c(cc1OC)[C@@H]1C(=O)c3ccc4c(c3O[C@@H]1CO2)CC(C(C)C)O4 (stereo partly specified) is ___
F

---

assay: chemical genetic growth profiling, strain panel (AID 1159580); conditions: S. cerevisiae deletion strains, growth OD, locus YKL009W, strain mrt4, hits give low values
The whole screen tested about 5,500 compounds, of which about 2,000 (36%) were called active. About 18% were inconclusive and are not listed. Some of the results follow.
Value kind: normalized growth
Could you respond with only the numeric value?

These recorded examples may help you get a feel for the data.
compound="CC(=O)OCC1=C(C(=O)O)N2C(=O)[C@@H](NC(=O)CCCC(N)C(=O)O)C2SC1 (stereo partly specified)" value_kind="normalized growth" measured_value=0.996
compound=COc1cc(/C=C/C=O)cc(OC)c1OC value_kind="normalized growth" measured_value=1.01
compound="CC(=O)O[C@H]1CC[C@]2(C)C3CC(=O)[C@]4(C)C(C(C)=O)=CCC4C3CC[C@H]2C1 (stereo partly specified)" value_kind="normalized growth" measured_value=0.965
compound=COc1ccc2c(c1)[C@]13CCCC[C@H]1[C@H](C2)N(C)CC3 value_kind="normalized growth" measured_value=0.99
compound="CN1C(=O)CCS(=O)(=O)C1c1ccc(Cl)cc1 (stereo unspecified)" value_kind="normalized growth" measured_value=1.03
compound=COc1cc2cc3c4cc(OC)c(OC)cc4cc[n+]3c(C)c2cc1OC value_kind="normalized growth" measured_value=0.997
compound=CC(=O)NO value_kind="normalized growth" measured_value=0.989
compound="CC(=O)OC1CCC2(C)C3CC(=O)C4(C)C(CC5OC6(CCC(C)CO6)[C@@H](C)C54)C3CC[C@H]2C1 (stereo partly specified)" value_kind="normalized growth" measured_value=0.983

Notebook: "NC(=O)NO" , normalized growth read as 0.998

normalized growth reading for NCC1OC(OC2C(CO)OC(OC3C(O)C(N)CC(N)C3OC3OC(CO)C(O)CC3N)C2O)C(N)C(O)C1OC1OC(CO)C(O)C(O)C1O (stereo unspecified) : 0.976

Recorded result, CC(=O)[C@@]1(O)CCC2C3CCC4=CC(=O)CC[C@]4(C)C3CC[C@@]21C (stereo partly specified) , normalized growth: 0.995

# compound CC1(C)C(=O)[C@@H]2O[C@@H]2[C@@]2(C)C1CC(=O)[C@]1(C)C2CC[C@@]2(C)[C@H](c3ccoc3)OC(=O)[C@H]3O[C@]321 (stereo partly specified) ; its normalized growth = 0.971

The recorded normalized growth for "OCCN1CCN(CCCN2c3ccccc3Sc3ccc(C(F)(F)F)cc32)CC1" is 0.926

Documented normalized growth of COc1cc2c(cc1OC)[C@@H]1C(=O)c3ccc4c(c3O[C@@H]1CO2)CC(C(C)C)O4 (stereo partly specified) : 1.01

For CC(N)C(O)c1ccc(O)c(O)c1 (stereo unspecified) the compound record lists normalized growth as 0.972

"Cc1cc(C(C)(C)C)c(O)c(C)c1CC1=NCCN1" yielded normalized growth of 1.01

Reported normalized growth for "CN1CCN(CCC=C2c3ccccc3Sc3ccc(S(=O)(=O)N(C)C)cc32)CC1" was 0.971

Lab note: measured normalized growth of "CCOc1cccc(C(=O)c2ccc(O)c(O)c2O)c1" was 0.914

The compound listed as "CN(C)CCc1c[nH]c2ccc(CS(=O)(=O)N3CCCC3)cc12" has a reported normalized growth of 0.992

Reported normalized growth for COP(=O)(OC)OC(Br)C(Cl)(Cl)Br (stereo unspecified) was 0.948

Form: compound = CC(=O)O[C@H]1CC[C@]2(C)C3CC[C@@]4(C)C(CC5O[C@@]6(CCC(C)CO6)[C@@H](C)C54)C3CC[C@@H]2C1 (stereo partly specified) ; normalized growth = 1.04

---

experiment: chemical genetic growth profiling, strain panel (AID 1159580);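 note: tested at 20 µM; growth read once vehicle control cultures reached saturation at 30 °C; 1 = growth at the plate median or of vehicle wells; lower values mean less growth of the strain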; conditions: S. cerevisiae deletion strains, growth OD, locus YEL061C, strain CIN8 (second series), hits give low values
In all, about 5,500 compounds went through this assay and about 2,000 (36%) were called active. Not shown: some 18% with an inconclusive outcome. Some of the results follow.
Value kind: normalized growth
# respond with the number and nothing more

Consider the reported normalized growth for these compounds:
compound="COC(=O)C[C@H]1C(C)(C)[C@@H](O)[C@@H]2CC3=C4C=C(OC)O[C@@H](c5ccoc5)[C@]4(C)CCC3[C@@]1(C)C2=O (stereo not given in full)" value_kind="normalized growth" measured_value=0.982
compound=CC1(C)S[C@@H]2[C@H](NC(=O)[C@H](C(=O)O)c3cccs3)C(=O)N2[C@H]1C(=O)O value_kind="normalized growth" measured_value=0.991
compound=COc1c2ccoc2cc2oc(C)cc(=O)c12 value_kind="normalized growth" measured_value=0.997
compound=NC(=O)N1c2ccccc2C=Cc2ccccc21 value_kind="normalized growth" measured_value=1.01
compound=CC1=NN(c2ccccc2)C(=O)C1 value_kind="normalized growth" measured_value=0.988

For the next question, use this compound.
Lab note: "COc1cccc(OC)c1C(=O)N[C@@H]1C(=O)N2[C@@H]1SC(C)(C)[C@@H]2C(=O)O" gave normalized growth of 0.996

---

test: chemical genetic growth profiling, strain panel (AID 1159580);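 note: tested at 20 µM; growth read once vehicle control cultures reached saturation at 30 °C; 1 = growth at the plate median or of vehicle wells; lower values mean less growth of the strain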; details: S. cerevisiae deletion strains, growth OD, locus YNL071W, strain lat1, hits give low values
Among all 5,500 compounds or so, about 2,000 (36%) were called active. Roughly 18% stayed inconclusive and do not appear here. Some of the results follow.
Value kind: normalized growth
A bare number is all that is needed in reply.

compound="CC1(C)C(=O)[C@@H]2C[C@@]3(O)C4=CC(=O)O[C@@H](c5ccoc5)[C@]4(C)CCC3[C@@](C)(C2=O)[C@H]1CC(=O)O (some centres undefined)" value_kind="normalized growth" measured_value=1.01

Consider Cc1onc(-c2ccccc2)c1C(=O)NC1C(=O)N2[C@@H]1SC(C)(C)[C@@H]2C(=O)O (some centres undefined) . Its measured normalized growth is 1.01

For reference, reported normalized growth for "CC1(C)S[C@@H]2[C@H](NC(=O)[C@H](C(=O)O)c3cccs3)C(=O)N2[C@H]1C(=O)O" stands at 1.01

Item: "COc1cccc(OC)c1C(=O)N[C@@H]1C(=O)N2[C@@H]1SC(C)(C)[C@@H]2C(=O)O" | normalized growth: 1

---

experiment: chemical genetic growth profiling, strain panel (AID 1159580);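 note: tested at 20 µM; growth read once vehicle control cultures reached saturation at 30 °C; 1 = growth at the plate median or of vehicle wells; lower values mean less growth of the strain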; settings: S. cerevisiae deletion strains, growth OD, locus YDL185W, strain tfp1
Screen size: about 5,500 compounds; about 2,000 (36%) were called active. About 18% were inconclusive and are not listed. Cut-off read from the data, not from the text of the source: active = normalized growth mostly below about 0.91 (no sharp cut-off); inconclusive = no clear call, values can overlap the other calls; inactive = mostly above about 0.92. The list shows a part of the results.
The categories you may choose from are active, inactive

Below, 4 molecules whose answers are already recorded.
molecule=O=C(O)[C@H](O)[C@@](O)(Cc1ccc(O)cc1)C(=O)O category=inactive
molecule="COc1c2c(cc3c1OCO3)C13C=C[C@H](OC)CC1N(C2)CC3O (some centres undefined)" category=inactive
molecule="NCC1OC(OC2C(CO)OC(OC3C(O)C(N)CC(N)C3OC3OC(CO)C(O)CC3N)C2O)C(N)C(O)C1OC1OC(CO)C(O)C(O)C1O (centres undefined)" category=inactive
molecule=Cc1onc(-c2ccccc2Cl)c1C(=O)N[C@@H]1C(=O)N2[C@@H]1SC(C)(C)[C@@H]2C(=O)O category=inactive

Kindly review the next molecule as well.
Please state the recorded outcome for this molecule: "CCNc1nc(Cl)nc(NCC)n1"
inactive
